Biological target: Glucocorticoid receptor (Homo sapiens)
Test: GR-EFC Redistribution (AID 451); note: potency is the fitted concentration of half-maximal effect
Settings: CHO-K1 GR-EFC translocation, beta-gal luminescence, 2 h
Activity calls are given as the source filed them. Calls come from the whole dose curve.
recorded_metric: Potency

Some compounds with recorded Potency:
>  <compound>
COc1cccc(-c2nc(NCCc3c[nH]c4ccc(OC)cc34)c3ccccc3n2)c1

>  <Potency>
> 46 µM (inactive)

$$$$
>  <compound>
CN1CCCN([C@@H](c2ccccc2)c2ccc(Cl)cc2)CC1

>  <Potency>
> 20.6 µM (inactive)

$$$$
>  <compound>
C#C[C@]1(O)CC[C@@H]2[C@H]3CCC4=CCCC[C@@H]4[C@@H]3CC[C@@]21C

>  <Potency>
> 20.6 µM (inactive)

$$$$

Exercise: Returns the measured Potency for the input compound. Input: O=C(O)[C@@H]1CCCN1
Solution: > 9.22 µM (inactive)

Exercise: // lookup Potency for Cc1ccccc1OC[C@H](O)CO
Solution: > 20.6 µM (inactive)

Exercise: Need Potency of COC(=O)[C@@H]1[C@@H]2C[C@H]3c4[nH]c5cc(OC)ccc5c4CCN3C[C@@H]2C[C@H](OC(=O)c2cc(OC)c(OC)c(OC)c2)[C@H]1OC , thanks.
Solution: > 20.6 µM (inactive)

Exercise: Given C1CCC(C(C[C@@H]2CCCCN2)C2CCCCC2)CC1 , state its recorded Potency.
Solution: > 20.6 µM (inactive)

Exercise: Bench note: what Potency did CCCCC[C@H](O)/C=C\[C@H]1[C@H](C/C=C\CCCC(=O)O)[C@@H](O)C[C@H]1O (tested in a mixture with another compound) show?
Solution: > 20.6 µM (inactive)

Exercise: # input compound: C=C(C)[C@H]1CC[C@]2(CO)CC[C@]3(C)[C@@H](CC[C@H]4[C@@]5(C)CC[C@@H](O)C(C)(C)[C@@H]5CC[C@@]43C)[C@H]12 ; wanted: its Potency
Solution: > 20.6 µM (inactive)

###

System: C2A
Assay: qHTS profiling for inhibitors of Plasmodium falciparum proliferation (AID 504749);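 note: 0% = DMSO vehicle and full inhibition = artemisinin control; nearly all actives have a fitted effect of over 60% in size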
Settings: P. falciparum in erythrocytes, SYBR Green DNA, 72 h; series mostly up to 12.8 µM
Procedure: NIH National Institute of Allergy and Infectious Diseases [NIAID] NIH Chemical Genomics Center [NCGC] […] Because mature erythrocytes lack DNA, only Plasmodium-derived DNA is detected. NCGC Assay Protocol Summary: The SYBR Green viability assay was adapted from a method described previously (Plouffe et al., 2008). […] The following morning, fluorescence intensity at 485(14) nm excitation and 535(25) nm emission wavelengths was measured on an EnVision (Perkin Elmer) plate reader. […]
Inconclusive results are not listed. The source made the active and inactive calls. Calls come from the whole dose curve; as a rule, active = well fitted inhibition curve with a large enough effect; inconclusive = small, poorly fitted or top-dose-only effect; inactive = flat fitted curve, though single readings scatter.
recorded_metric: outcome

>  <compound>
CCC(CCC(C)C1CCC2C3CC=C4CC(O)CC[C@@]4(C)C3CC[C@@]12C)C(C)C (stereo partly drawn)

>  <recorded_metric>
outcome

>  <reported_result>
inactive

$$$$
>  <compound>
COC(=O)N/N=C/C1=C[N+](=O)c2ccccc2[N+]1=O

>  <recorded_metric>
outcome

>  <reported_result>
inactive

$$$$
>  <compound>
CC1C2CCC3C4CC=C5CC(N(C)C)CC[C@@]5(C)C4CC[C@@]32CN1C (stereo partly drawn)

>  <recorded_metric>
outcome

>  <reported_result>
inactive

$$$$

###

Target: Rap guanine nucleotide exchange factor 3 (Homo sapiens) (UniProt O95398)
Sequence (O95398 whole entry, looked up): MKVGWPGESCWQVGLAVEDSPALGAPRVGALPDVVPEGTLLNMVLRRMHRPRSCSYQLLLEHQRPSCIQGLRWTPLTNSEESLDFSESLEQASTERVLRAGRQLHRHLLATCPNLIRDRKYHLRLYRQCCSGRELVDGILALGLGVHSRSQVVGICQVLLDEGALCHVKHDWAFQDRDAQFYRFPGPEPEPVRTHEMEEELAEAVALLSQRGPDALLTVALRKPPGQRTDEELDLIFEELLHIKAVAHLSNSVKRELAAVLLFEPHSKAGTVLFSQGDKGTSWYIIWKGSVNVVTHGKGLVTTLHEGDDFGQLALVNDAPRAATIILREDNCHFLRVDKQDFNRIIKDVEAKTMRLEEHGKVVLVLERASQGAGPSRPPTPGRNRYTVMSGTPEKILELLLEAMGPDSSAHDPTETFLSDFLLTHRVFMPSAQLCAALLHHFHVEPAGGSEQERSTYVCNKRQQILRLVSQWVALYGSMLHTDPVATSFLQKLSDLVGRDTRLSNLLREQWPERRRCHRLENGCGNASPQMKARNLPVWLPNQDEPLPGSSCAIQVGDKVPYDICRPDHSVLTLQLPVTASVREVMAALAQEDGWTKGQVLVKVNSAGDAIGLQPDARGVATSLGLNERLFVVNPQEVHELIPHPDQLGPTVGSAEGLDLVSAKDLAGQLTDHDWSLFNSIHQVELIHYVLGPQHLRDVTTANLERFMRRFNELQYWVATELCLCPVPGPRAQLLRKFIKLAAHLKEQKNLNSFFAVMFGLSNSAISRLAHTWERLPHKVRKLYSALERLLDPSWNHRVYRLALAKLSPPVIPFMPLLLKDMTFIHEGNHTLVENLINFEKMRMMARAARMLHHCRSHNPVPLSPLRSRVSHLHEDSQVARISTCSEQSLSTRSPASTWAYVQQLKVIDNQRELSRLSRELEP
Experiment: Confirmatory qHTS for antagonist of cAMP-regulated guanine nucleotide exchange factor 3 (EPAC1) (AID 1645880); note: nearly all actives have a fitted effect of over 55% in size; note: potency is the fitted concentration of half-maximal effect
Details: EPAC1 Rap1B-BODIPY-GDP exchange, fluorescence; series mostly up to 115 µM
Results filed as inconclusive are left out. Active and inactive are the calls of the source. Calls come from the whole dose curve; as a rule, active = well fitted inhibition curve with a large enough effect; inconclusive = small, poorly fitted or top-dose-only effect; inactive = no such curve, though single readings can be large or run the other way.
recorded_metric: Potency

>  <molecule>
COc1ccc(OC)c(N=Cc2c(O)c3ccccc3oc2=O)c1

>  <Potency>
inactive

$$$$
>  <molecule>
O=C(O)CCN1C(=O)/C(=C\c2cccc(Oc3ccccc3)c2)SC1=S

>  <Potency>
26.9 µM (active)

$$$$
>  <molecule>
COc1ccc(OC)c(/C=C2\N=C(c3ccccc3)OC2=O)c1

>  <Potency>
inactive

$$$$
>  <molecule>
O=C(Cc1ccccc1)NCC(=O)N1CCC1

>  <Potency>
inactive

$$$$
>  <molecule>
CCC1CCCCN1CCCNC(=O)c1csc2c1CCCCC2 (configuration not stated)

>  <Potency>
inactive

$$$$

Exercise: If you can, please state the reported Potency value of CC(C)OC(=O)/C(=C/c1ccc2c(c1)c1ccccc1n2C)NC(=O)c1ccccc1 .
Solution: inactive

Exercise: Recorded Potency for C=CCOC(=O)C1=C(C)Nc2nnnn2C1c1cccs1 (configuration not stated) , please?
Solution: inactive

Exercise: Value lookup for Potency; key = Cc1cccnc1NC(=O)c1ccc(S(=O)(=O)N2CC(C)OC(C)C2)cc1 (configuration not stated)
Solution: inactive

Exercise: Consider the molecule shown here: NS(=O)(=O)c1ccc(-c2cccc(/C=C3\SC(=O)NC3=O)c2)cc1 What is its recorded Potency?
Solution: 33.8 µM (active)

Exercise: Recorded Potency of CCOc1ccc(C(C(=O)NC2CCCC2)N(C(=O)c2snc(C(N)=O)c2N)C2CCCC2)cc1 (configuration not stated) , please.
Solution: inactive

Exercise: Would you mind telling me what Potency value was observed for COCCCn1c(-c2ccccc2)nc2ccccc2c1=O ?
Solution: inactive

Exercise: Param item = COc1ncc(-c2c(-c3ccccc3OC)sc3ccccc23)cn1 ; retrieve measured Potency.
Solution: inactive

###

Target: Rap guanine nucleotide exchange factor 3 (Homo sapiens)
Assay: Counterscreen qHTS for antagonist of cAMP-regulated guanine nucleotide exchange factor 3 (EPAC1) (AID 1645888);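 note: fluorescence loss as bound BODIPY-GDP is released from Rap1B; % of control where 0% means no effect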
Conditions: Rap1B-BODIPY-GDP nucleotide exchange, fluorescence; series mostly up to 154 µM
Records with an inconclusive call do not appear. Activity calls are given as the source filed them. Calls come from the whole dose curve; as a rule, active = well fitted inhibition curve with a large enough effect; inconclusive = small, poorly fitted or top-dose-only effect; inactive = no such curve, though single readings can be large or run the other way.
recorded_metric: activity change, negative = inhibition

Consider the following illustrative entries.
>  <compound>
O=S(=O)(NCc1ccco1)c1ccc(Cl)cc1Cl

>  <target_or_test_system>
Rap guanine nucleotide exchange factor 3 (Homo sapiens)

>  <activity change, negative = inhibition>
-9.1% [at 30.8 µM] (inactive)

$$$$
>  <compound>
CCOc1ccc(NC(=O)CN(C)C(=O)c2cc(C3CC3)nn2-c2ccccc2)cc1OCC

>  <target_or_test_system>
Rap guanine nucleotide exchange factor 3 (Homo sapiens)

>  <activity change, negative = inhibition>
inactive

$$$$
>  <compound>
CCOC(=O)c1cc(C(C)(C)C)nc(SC)c1C#N

>  <target_or_test_system>
Rap guanine nucleotide exchange factor 3 (Homo sapiens)

>  <activity change, negative = inhibition>
inactive

$$$$
>  <compound>
COc1ccc(Cl)cc1N(C)C(=O)Cc1noc2ccc(C)cc12

>  <target_or_test_system>
Rap guanine nucleotide exchange factor 3 (Homo sapiens)

>  <activity change, negative = inhibition>
inactive

$$$$
>  <compound>
C#CCOc1ccc(/C=C2/C(=O)N(c3cccc(C(=O)O)c3)N=C2C)cc1OC

>  <target_or_test_system>
Rap guanine nucleotide exchange factor 3 (Homo sapiens)

>  <activity change, negative = inhibition>
6.78% [at 30.8 µM] (inactive)

$$$$

Exercise: Need activity change, negative = inhibition, item Cc1ccccc1NC1=C/C(=N\S(=O)(=O)c2ccc(C(=O)O)cc2)c2ccccc2C1=O
Solution: -15% [at 30.8 µM] (inactive)

Exercise: Suppose we examine the compound COc1ccc(C2=NN(c3nc4ccccc4s3)C(=O)C2)cc1 ; what activity change, negative = inhibition value has been reported?
Solution: inactive

Exercise: Can you look up the measured activity change, negative = inhibition of O=C(COC(=O)CNC(=O)c1ccc(Cl)cc1Cl)NCc1ccco1 for me?
Solution: 9.24% [at 30.8 µM] (inactive)

Exercise: What value of measured activity change, negative = inhibition is listed for CCCNC(=O)c1ccc2c(=O)c(O)c(-c3ccsc3)[nH]c2c1 ?
Solution: -0.0367% [at 30.8 µM] (inactive)

Exercise: Would you kindly share the measured activity change, negative = inhibition for COc1cc(NS(=O)(=O)c2ccc(NC(=O)/C(=C/c3ccccc3Cl)NC(=O)c3ccccc3)cc2)nc(OC)n1 ?
Solution: inactive

Exercise: May I ask what activity change, negative = inhibition has been recorded for COc1ccccc1Sc1nc(-c2ccccc2)ncc1OC ?
Solution: 8.06% [at 30.8 µM] (inactive)

Exercise: Value lookup for activity change, negative = inhibition; key = Cc1cc2c(c(=O)o1)C(c1ccc([N+](=O)[O-])o1)C(C#N)=C(N)O2 (configuration not stated)
Solution: inactive

###

Assay: NFAT Signaling Pathway (AID 444);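 note: carbachol stimulus at about its EC50 of 1 µM final; % is set by controls: 0 for no effect and ±100 for the full control effect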
Details: Jurkat NFAT-bla M1, carbachol, beta-lactamase ratio, 5 h; at 17.2 µM (top of the series) unless noted
Results filed as inconclusive are left out.
recorded_metric: activity change, negative = inhibition (%)
State the answer as a number, implicitly in %.

>  <molecule_smiles>
CCCC[C@H](CC)CN1CN(C[C@@H](CC)CCCC)CC(C)(N)C1

>  <unit_tag>
%

>  <reported_result>
-26.2

$$$$

Turning now to a further molecule:
Exercise: What value of activity change, negative = inhibition has been recorded for this entry: CCCCC[C@H](O)/C=C\[C@@H]1[C@H](O)CC(=O)[C@@H]1CCCCCCC(=O)O
Solution: -1.09
